Values compiled from ChEMBL document CHEMBL3091347.

test: Lipophilicity, log P of the compound; conditions: octanol/water, logP
Recorded logP by entry
Measurement type: logP

Molecule | Readout value
C/C=C/CCCCCCC/C=N/NC(=O)c1ccncc1 | 2.29
CC(O)(NNC(=O)c1ccncc1)C(=O)O (stereo not drawn) | -2.78
O=C(NNC1CCCCC1)c1ccncc1 | -0.055
NNC(=O)c1ccc(C(=O)NN)o1 | -1.63
C/C(=N\NC(=O)c1ccncc1)c1cccc(CN2CCCC2)c1O | 1.99
CC1CCC(NNC(=O)c2ccncc2)CC1 (stereo not drawn) | 0.594
NNC(=O)c1cncs1 | -2.2
NNC(=O)c1ccc([N+](=O)[O-])o1 | -0.396
C/C(=N\NC(=O)c1ccncc1)c1cccc(CN2CCN(Cc3ccccc3)CC2)c1O | 3.83
CC(=O)Nc1ccc(/C=N\NC(=O)c2ccco2)cc1 | 2.64
CCN(CC)CCN(C)c1ccc(/C=N/NC(=O)c2ccncc2)cc1 | 2.43
NNC(=O)c1csc(N)n1 | -2.69
NNC(=O)c1c[nH]cn1 | -2.85

----------
experiment: Lipophilicity, log P of the compound; settings: octanol/water, logP
Entries whose logP is below -0.6 take Met; entries at or above -0.6 take Not met.

Compound | Assigned category
NNC(=O)Cc1ccncc1 | Met
O=C(NNCc1ccco1)c1ccncc1 | Met
CC(=O)Nc1cc(C(=O)NN)ccn1 | Met
NNC(=O)c1ccnc([N+](=O)[O-])c1 | Met
CN1CCC(C(=O)NN)CC1 | Met
NNC(=O)c1cc2ccccc2o1 | Not met
C/C(=N\NC(=O)c1ccncc1)c1cccc(CN(C)C)c1O | Not met
Cc1cnccc1C(=O)NN | Met
O=C(NN=C1CCCCC1)c1ccncc1 | Not met
NNC(=O)/C=C/c1ccco1 | Met
CC(C)=NNC(=O)c1cccs1 | Not met
NNC(=O)c1ccc(C(=O)NN)cc1 | Met
C/C(=N\NC(=O)c1ccncc1)c1cccc(CN2CCN(c3cc4c(cc3F)c(=O)c(C(=O)O)cn4C3CC3)CC2)c1O | Not met
CCC(CC)NNC(=O)c1ccncc1 | Not met
CC(C)/C=N\NC(=O)c1ccco1 | Not met
Cc1ccc(OC/C(N)=N/NC(=O)c2ccncc2)cc1 | Not met
COc1cc(C(=O)NN)ccn1 | Met
N/N=C(\CC(=O)c1ccncc1)C(=O)c1ccncc1 | Met
NNC(=O)Cc1ccc(Cl)cc1 | Not met
N/N=C/C(CC(=O)c1ccncc1)C(=O)c1ccncc1 (configuration not stated) | Met
NNC(=O)C(O)c1ccccc1 (configuration not stated) | Met
CCCCCCCCCC/C=N/NC(=O)c1ccncc1 | Not met
CC(C)/C=N/NC(=O)c1cccs1 | Not met
NNC(=O)Cc1cc2ccccc2[nH]1 | Met
NNC(=O)c1ccnc(Cc2ccccc2)c1 | Not met
CC(=O)N1CCC(C(=O)NN)CC1 | Met
NNC(=O)c1ccco1 | Not met
NNC(=O)c1ccc[nH]1 | Met
CC(C)(C#N)NNC(=O)c1ccncc1 | Met
NNS(=O)(=O)c1ccc(N)cc1 | Met
CC(=O)Nc1ccc(/C=N\NC(=O)c2ccncc2)cc1 | Not met
CC(=O)NN | Met
CC1CCC(=NNC(=O)c2ccncc2)CC1 (configuration not stated) | Not met
NNC(=O)c1c[nH]c(S)n1 | Met
NNC(=O)c1ccc(I)cc1 | Not met
NNC(=O)c1ccnc(N)c1 | Met
NNC(=O)c1ccnc(F)c1 | Met
NNC(=O)c1nc2ccccc2[nH]1 | Met
Cc1ccc(C)n1NC(=O)c1cccs1 | Not met
NNC(=O)c1ccnc(-c2ccccc2)c1 | Met
CCC(C)NNC(=O)c1ccncc1 (configuration not stated) | Met
O=C(N/N=C/C(O)C(O)C(O)C(O)CO)c1ccco1 (configuration not stated) | Met
CC(C)CNNC(=O)c1ccncc1 | Met
C/C(=N\NC(=O)c1ccncc1)c1cccc(CN2CCN(C)CC2)c1O | Not met
Nc1ccc(S(=O)(=O)NNC(=O)c2ccncc2)cc1 | Met
C/C=N/NC(=O)c1ccncc1 | Met
CC(C)CCOc1ccc(/C=N/NC(=O)c2ccncc2)cc1 | Not met
CC(=O)NNC(=O)c1ccco1 | Met
NNC(=O)C1CCNCC1 | Met
CCN(CC)c1cc(C(=O)NN)ccn1 | Not met
Cc1cc(C(=O)NN)ccn1 | Met
